The reported numbers originate from ChEMBL document CHEMBL1641436.

Field: inhibition. Provide a value for each of the molecules that follow.
target: Galactofuranosyltransferase GlfT2 (Mycobacterium tuberculosis) (UniProt O53585); assay: Inhibition of Mycobacterium tuberculosis GIFT2 at 4 mM at pH7.6 by spectrophotometric assay
Sequence (O53585 whole entry): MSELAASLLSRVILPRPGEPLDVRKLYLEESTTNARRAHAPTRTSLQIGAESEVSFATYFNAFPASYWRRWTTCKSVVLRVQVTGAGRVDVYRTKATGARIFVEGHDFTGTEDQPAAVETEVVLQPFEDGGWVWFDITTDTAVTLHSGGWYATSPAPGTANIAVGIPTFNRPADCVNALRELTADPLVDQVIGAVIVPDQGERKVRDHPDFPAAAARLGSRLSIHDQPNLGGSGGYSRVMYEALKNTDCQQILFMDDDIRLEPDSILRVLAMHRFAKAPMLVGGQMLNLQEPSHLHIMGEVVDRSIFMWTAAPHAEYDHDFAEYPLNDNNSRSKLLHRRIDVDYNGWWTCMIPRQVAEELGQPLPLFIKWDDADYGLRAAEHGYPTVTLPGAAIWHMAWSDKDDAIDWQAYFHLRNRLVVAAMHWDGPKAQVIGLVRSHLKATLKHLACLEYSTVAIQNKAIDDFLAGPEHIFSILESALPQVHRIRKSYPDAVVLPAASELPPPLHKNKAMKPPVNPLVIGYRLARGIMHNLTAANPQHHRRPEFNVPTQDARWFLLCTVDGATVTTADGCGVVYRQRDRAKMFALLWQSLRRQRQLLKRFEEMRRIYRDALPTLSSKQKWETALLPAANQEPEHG
Give bare numbers, in %.

Consider the reported inhibition for these molecules:
{"molecule": "O=C1CCN([C@@H]2O[C@H](CNC(=O)[C@H](Cc3c[nH]c4ccccc34)NC(=O)C[C@H]3O[C@H](CO)[C@H](O)[C@H](O)[C@H]3O)[C@@H](O)[C@H]2O)C(=O)N1", "units-label": "%", "inhibition": 53}
{"molecule": "O=C1CCN([C@@H]2O[C@H](CNC(=O)[C@H](Cc3cnc[nH]3)NC(=O)C[C@H]3O[C@H](CO)[C@H](O)[C@H](O)[C@H]3O)[C@@H](O)[C@H]2O)C(=O)N1", "units-label": "%", "inhibition": 18}
{"molecule": "O=C(C[C@H]1O[C@H](CO)[C@H](O)[C@H](O)[C@H]1O)N[C@@H](Cc1cnc[nH]1)C(=O)NC[C@H]1O[C@@H](n2ccc(=O)[nH]c2=O)[C@H](O)[C@@H]1O", "units-label": "%", "inhibition": 79}

Short answer please: inhibition, Galactofuranosyltransferase GlfT2 (Mycobacterium tuberculosis) (UniProt O53585), entry `O=C(C[C@H]1O[C@H](CO)[C@H](O)[C@H](O)[C@H]1O)N[C@@H](Cc1c[nH]c2ccccc12)C(=O)NC[C@H]1O[C@@H](n2ccc(=O)[nH]c2=O)[C@H](O)[C@@H]1O`
75
